biological target: T1, CD71 apical domain (UniProt P02786 189-383, limits assumed); experiment: solution ELISA
T1 construct: domain: Apical domain
T1 sequence (P02786 189-383 limits assumed): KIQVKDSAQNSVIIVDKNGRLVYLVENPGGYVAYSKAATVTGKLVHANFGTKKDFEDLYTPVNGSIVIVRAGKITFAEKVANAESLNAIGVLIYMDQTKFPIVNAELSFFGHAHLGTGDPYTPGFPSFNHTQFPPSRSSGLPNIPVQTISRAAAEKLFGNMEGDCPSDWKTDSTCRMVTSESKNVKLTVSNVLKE
readout_name: Apical domain, RLU (RLU)
Reply with just the number (in RLU).

Completed entries (count: 5):
INSERT INTO results (binder, measurement_unit, experimental_result) VALUES
  ('SEQ ID NO 193 (designed binder, FN3 domain) MLPAPKNLVVSRVTEDSARLSWTAPDAAFDSFYIAYAEPRPDGEAISLSVPGSERSYDLTGLKPGTEYSVLIHGVKGGLLSSPLIANFTT', 'RLU', '6.12e+06'),
  ('SEQ ID NO 121 (designed binder, FN3 domain) MLPAPKNLVVSRVTEDSARLSWTAPDAAFDSFFIGYLEPQPPGEAIALWVPGSERSYDLTGLKPGTEYNVTIQGVKGGFPSMPLSAIFTT', 'RLU', '6.18e+06'),
  ('SEQ ID NO 190 (designed binder, FN3 domain) MLPAPKNLVVSRVTEDSARLSWTAPDAAFDSFYIAYAEPRPDGEAISLDVPGSERSYDLTGLKPGTEYSVLIHGVKGGLLSSPLEASFTT', 'RLU', '4.89e+06'),
  ('SEQ ID NO 107 (designed binder, FN3 domain) MSLPAPKNLVVSRVTEDSARLSWTAPDAAFDSFYIAYAEPRPDGEAISLYVPGSERSYDLTGLKPGTEYSVLIHGVKGGLLSSPLSAISTT', 'RLU', '5.99e+06'),
  ('SEQ ID NO 198 (designed binder, FN3 domain) MLPAPKNLVVSRVTEDSARLSWTAPDAAFDSFYIAYAEPRPDGEAIILEVPGSERSYDLTGLKPGTEYSVLIHGVKGGLLSSPLVAYFTT', 'RLU', '7.2e+06');

Query: Report Apical domain, RLU, nothing else, for this binder: SEQ ID NO 144 (designed binder, FN3 domain) MLPAPKNLVVSRVTEDSARLSWTAPDAAFDSFYIAYAEPRPDGEAIGLYVPGSERSYDLTGLKPGTEYSVLIHGVKGGLLSSPLGAFFTT
Reply: 3.91e+06

Query: Report Apical domain, RLU, nothing else, for this binder: SEQ ID NO 163 (designed binder, FN3 domain) MLPAPKNLVVSRVTEDSARLSWTAPDAAFDSFFIGYLEPQPPGEAIYLEVPGSERSYDLTGLKPGTEYNVTIQGVKGGFPSFPLKAAFTT
Reply: 74500

Query: Report Apical domain, RLU, nothing else, for this binder: SEQ ID NO 185 (designed binder, FN3 domain) MLPAPKNLVVSRVTEDSARLSWTAPDAAFDSFYIAYAEPRPDGEAIYLGVPGSERSYDLTGLKPGTEYSVLIHGVKGGLLSSPLRAKFTT
Reply: 5.46e+06

Query: Report Apical domain, RLU, nothing else, for this binder: SEQ ID NO 187 (designed binder, FN3 domain) MLPAPKNLVVSRVTEDSARLSWTAPDAAFDSFFIGYLEPQPPGEAISLLVPDSERSYDLTGLKPGTEYNVTIQGVKGGFPSMPLKFTT
Reply: 77900

src = patent US20220332795A1
